TARGET_SYSTEM: vanilloid receptor (VR1) (Homo sapiens, UniProt Q8NER1)
Construct: expressed in transfected cells; host or cells: CHO K1 cells (ECACC), stably transfected
Sequence (Q8NER1 whole entry): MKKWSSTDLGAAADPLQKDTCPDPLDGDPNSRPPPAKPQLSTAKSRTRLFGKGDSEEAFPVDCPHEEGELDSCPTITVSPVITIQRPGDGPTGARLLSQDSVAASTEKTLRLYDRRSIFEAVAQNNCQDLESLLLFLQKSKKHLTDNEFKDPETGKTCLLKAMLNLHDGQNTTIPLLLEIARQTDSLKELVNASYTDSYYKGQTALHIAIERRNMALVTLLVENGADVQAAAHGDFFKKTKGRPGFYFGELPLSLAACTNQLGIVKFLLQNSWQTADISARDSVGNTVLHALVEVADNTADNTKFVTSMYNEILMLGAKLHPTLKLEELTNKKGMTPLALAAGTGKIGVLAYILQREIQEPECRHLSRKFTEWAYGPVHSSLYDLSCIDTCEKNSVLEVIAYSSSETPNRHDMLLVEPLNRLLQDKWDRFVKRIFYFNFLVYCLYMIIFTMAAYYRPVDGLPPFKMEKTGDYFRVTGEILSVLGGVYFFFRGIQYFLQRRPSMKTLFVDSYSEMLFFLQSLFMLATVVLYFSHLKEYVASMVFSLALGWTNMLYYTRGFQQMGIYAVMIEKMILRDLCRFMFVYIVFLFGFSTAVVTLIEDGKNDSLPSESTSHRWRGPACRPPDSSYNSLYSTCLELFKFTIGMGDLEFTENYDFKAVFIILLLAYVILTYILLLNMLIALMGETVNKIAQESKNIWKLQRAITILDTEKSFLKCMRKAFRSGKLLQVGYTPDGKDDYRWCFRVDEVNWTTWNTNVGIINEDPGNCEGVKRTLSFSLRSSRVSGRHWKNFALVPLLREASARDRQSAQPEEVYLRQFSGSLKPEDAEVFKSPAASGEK
ASSAY_OVERVIEW: Functional testing on vanilloid receptor (VR1): FLIPR Ca2+ inflow assay in CHO K1 cells stably transfected with the VR1 gene
Format: cell-based
RECORDED_CONDITIONS: CHO-K1, inhibition compared to 10 μM CP (capsaicin)
ENDPOINT_LABEL: inhibition at 10 µM
State the result as a value with its unit after it.

Below, each entry is followed by its recorded inhibition at 10 µM result.
| MOLECULE | inhibition at 10 µM |
| --- | --- |
| O=C(Nc1ccccc1Oc1ccccc1)N1CCC2(CC1)CC(c1ccc(C(F)(F)F)cc1)=NO2 | 8.28% |
| FC(F)(F)c1cccc(NC(=S)N2CCC3(CC2)CC(c2ccccc2)=NO3)c1 | 7.81% |
| CC(C)c1ccc(C=CC(=O)N2CCC3(CC2)CC(c2ccccc2)=NO3)cc1 | 6% |
| COc1cccc(C2=NOC3(CCN(C(=O)NCCc4ccccc4)CC3)C2)c1 | -13.1% |

Dear colleague, could you please provide inhibition at 10 µM for the molecules listed below?
1. O=C(C#Cc1ccc(C(F)(F)F)cc1)N1CCC2(CC1)CC(c1ccccc1)=NO2
2. CC1CN(C(=O)Nc2ccc(C(C)(C)C)cc2)CCC12CC(c1ccccc1)=NO2 (centres unmarked)
3. O=C(/C=C/c1ccc(C(F)(F)F)nc1N1CCCCC1)N1CCC2(CC1)CC(c1cccc(F)c1)=NO2
4. CCc1ccc(NC(=O)N2CCC3(CC2)CC(c2ccc(Cl)cc2)=NO3)cc1

Output:
1. 30%
2. 19%
3. 74%
4. -2.13%

----------
TARGET_SYSTEM: rat-species vanilloid receptor 1 (VR1/TRPV1) (Rattus norvegicus)
Construct: endogenous in cells; host or cells: primary cells dissociated from rat dorsal root ganglia (DRG)
Sequence (O35433 whole entry): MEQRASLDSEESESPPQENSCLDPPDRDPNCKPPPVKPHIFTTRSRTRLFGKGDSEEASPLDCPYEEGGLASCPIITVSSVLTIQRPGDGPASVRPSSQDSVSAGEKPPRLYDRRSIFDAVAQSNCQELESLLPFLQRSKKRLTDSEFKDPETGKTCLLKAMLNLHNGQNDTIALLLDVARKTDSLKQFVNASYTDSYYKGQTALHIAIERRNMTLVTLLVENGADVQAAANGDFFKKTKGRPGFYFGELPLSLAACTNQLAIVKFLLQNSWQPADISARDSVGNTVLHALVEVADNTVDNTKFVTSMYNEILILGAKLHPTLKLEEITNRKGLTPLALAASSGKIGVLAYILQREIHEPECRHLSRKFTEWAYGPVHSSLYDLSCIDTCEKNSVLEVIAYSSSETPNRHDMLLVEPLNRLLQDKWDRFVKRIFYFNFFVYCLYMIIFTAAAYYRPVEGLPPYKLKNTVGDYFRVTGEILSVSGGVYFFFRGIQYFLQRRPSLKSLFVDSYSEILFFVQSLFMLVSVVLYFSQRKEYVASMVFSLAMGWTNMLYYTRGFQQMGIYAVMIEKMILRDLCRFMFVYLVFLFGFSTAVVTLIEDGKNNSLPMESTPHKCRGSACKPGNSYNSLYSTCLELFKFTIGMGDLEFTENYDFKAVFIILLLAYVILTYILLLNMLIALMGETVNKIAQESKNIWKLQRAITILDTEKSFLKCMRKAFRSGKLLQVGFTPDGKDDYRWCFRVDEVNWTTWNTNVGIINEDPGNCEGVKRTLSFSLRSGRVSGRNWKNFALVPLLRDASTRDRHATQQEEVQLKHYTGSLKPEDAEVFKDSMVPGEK
ASSAY_OVERVIEW: Functional testing on vanilloid receptor 1 (VR1/TRPV1): FLIPR Ca2+ inflow assay in rat dorsal root ganglia cells (% activation / % inhibition vs capsaicin)
Type: cell-based
RECORDED_CONDITIONS: stimulation compared to 10 μM CP (capsaicin)
ENDPOINT_LABEL: activation at 10 µM (%)
Answers are plain numbers, in %.

Below, each entry is followed by its recorded activation at 10 µM result.
| COMPOUND | activation at 10 µM [%] |
| --- | --- |
| COc1ccc(NC(=O)N2CCC3(CC2)CC(c2cccc(OC)c2)=NO3)cc1 [Compound 47] | 0.92 |
| CC1CN(C(=O)Nc2ccc(C(F)(F)F)cc2)CCC12CC(c1ccccc1)=NO2 (centres unmarked) [Compound 385] | 1 |
| CC(C)(C)c1ccc(/C=C/C(=O)N2CCC3(CC2)CC(c2cccc(F)c2)=NO3)cc1 [Compound 353] | 0 |

Dear colleague, could you please provide activation at 10 µM for the compounds listed below?
1. CC1CN(C(=O)Nc2ccc(C(C)(C)C)cc2)CCC12CC(c1ccccc1)=NO2 (centres unmarked) [Compound 369]
2. CC(C)(C)c1ccc(C(/C=C/c2ccccc2)=C/C(=O)N2CCC3(CC2)CC(c2cccc(F)c2)=NO3)cc1 [Compound 358]
3. CC(C)(C)c1ccc(NC(=O)N2CCC3(CC2)CC(c2ccc(C(C)(C)C)cc2)=NO3)cc1 [Compound 143]
4. COc1cccc(C2=NOC3(CCN(C(=O)Nc4cc(C(F)(F)F)ccc4Cl)CC3)C2)c1 [Compound 221]
5. COc1cc(C2=NOC3(CCN(C(=O)Nc4ccc(C(C)(C)C)cc4)CC3)C2)ccc1Cl [Compound 378]

Output:
1: 0; 2: 0; 3: -0.33; 4: 0.95; 5: 33
